# experimentalSystem: ScBzz1-D2
# protocolSummary: SPOT peptide array binding signal intensity (averaged, normalized) (arbitrary units (background-subtracted, floor 0; scale differs between SH3 domains)); higher = stronger binding of the SH3 domain to the peptide
Would you kindly list SPOT peptide array binding signal intensity for each of these binders?
Answer using only a numeral; do not append any unit.

Request: Please look up its SPOT peptide array binding signal intensity: RRASLFPRDPKRLRP
Response: 104

Request: Field entry: LRWRHKFFLPAIAAI
Response: 14.2

Request: Field entry: QGYPRQPQRPQRYHP
Response: 11

Request: Field entry: SRYRRPLTLLLLKPF
Response: 74.5

Request: Field entry: LLRRTIPKRPFYHVL
Response: 13

Request: Field entry: QRKSLRRPTLSKPAV
Response: 43

Request: Field entry: STKKPRPPVKSKPKH
Response: 13

Request: Field entry: KRRTSLFPWLHKPGI
Response: 2.5

Request: Field entry: APPPPPRRATPEKKP
Response: 10

Request: Field entry: RRRIAYPFYPFKKLG
Response: 14

Request: Field entry: TTNRGPPPLPPRANV
Response: 8

Request: Field entry: AGKRRLPLVRFKASD
Response: 44

Request: Field entry: LKRITSPPLPPRADS
Response: 18
